test system: HEK-293T; experiment: Multiplex assay against HEK293T; type: toxicity, cell-based; conditions: human, 12 h, 1 µM, compound concentration 1 uM, replicate 2
Note to self: use Met only for Population Mitotic Cells (%) readings below 60%; a reading exactly at 60% still gets Not met.

For orientation, consider the following solved cases.
- Compound: "COc1c(Nc2ccc(S(C)(=O)=O)nc2C)ncnc1OC1CCN(C(=O)OC(C)C)CC1"
  Assigned Label: "Not met"
- Compound: "Cl.Cl.OCCOCCN1CCN(C(c2ccccc2)c2ccc(Cl)cc2)CC1 (centres undefined) [HYDROXYZINE HYDROCHLORIDE]"
  Assigned Label: "Met"
- Compound: "CC(F)(F)CN1CCOc2c(nn(-c3ccccc3Cl)c2-c2ccc(Cl)cc2)C1=O"
  Assigned Label: "Met"
- Compound: "Cn1cc(C(=O)OCC2CCN(CCNS(C)(=O)=O)CC2)c2ccccc21"
  Assigned Label: "Met"

Problem: For the compound CN1CCC(C(=O)c2cccc(NC(=O)c3c(F)cc(F)cc3F)n2)CC1 , is Population Mitotic Cells (%) under 60%?
Met

Problem: For the compound COc1ccc2[nH]c(I)c(CCNC(C)=O)c2c1 , is Population Mitotic Cells (%) under 60%?
Met

Problem: For the compound C=CCN1C[C@H](C(=O)N(CCCN(C)C)C(=O)NCC)C[C@@H]2c3cccc4[nH]cc(c34)C[C@H]21 , is Population Mitotic Cells (%) under 60%?
Not met

* * *

# key: entry, value: Population Normal (%)
system: U2OS; test: Multiplex assay against U2OS; assay type: toxicity, cell-based; details: human, 24 h, 10 µM, compound concentration 10 uM, replicate 2
Please respond with the number in % and leave the unit unwritten.

- Compound: "CC(C)C[C@H](CO)Nc1nc(S[C@@H](C)c2ccccc2)nc2nc(N)sc12 [AZD-8797]"
  Population Normal (%): 98
- Compound: "COc1cc2nc(N3CCN(C(=O)c4ccco4)CC3)nc(N)c2cc1OC.Cl [PRAZOSIN HYDROCHLORIDE]"
  Population Normal (%): 98
- Compound: "CCCCC[C@H](O)/C=C/[C@H]1[C@H](O)CC(=O)[C@@H]1CCCCCCC(=O)O [ALPROSTADIL]"
  Population Normal (%): 99
- Compound: "Cc1c(Cc2ccc3ccccc3n2)c2cc(F)ccc2n1CC(=O)O [TIMAPIPRANT]"
  Population Normal (%): 100
- Compound: "COc1ccc2c(c1OCc1ccccc1)C[C@@H](C(=O)O)N(C(=O)C(c1ccccc1)c1ccccc1)C2 [OLODANRIGAN]"
  Population Normal (%): 100
- Compound: "O=c1ccc2ccc(OCCCCN3CCN(c4cccc5sccc45)CC3)cc2[nH]1 [BREXPIPRAZOLE]"
  Population Normal (%): 77

The compound listed as S=C(NCCCc1c[nH]cn1)NCCCN(Cc1ccc(Cl)c(Cl)c1)c1ccc(Br)cn1 has a reported Population Normal (%) of 97

The compound listed as N[C@](CC1c2ccccc2Oc2ccccc21)(C(=O)O)[C@H]1C[C@@H]1C(=O)O has a reported Population Normal (%) of 99

The compound listed as CC(C)(O)C(=O)N1CCN(c2ccc(C(F)(F)F)c(C3=C(c4c[nH]c5ccccc45)C(=O)NC3=O)c2)CC1 has a reported Population Normal (%) of 97

* * *

system: U2OS; assay: Multiplex assay against U2OS; format: toxicity, cell-based; conditions: human, 12 h, 1 µM, compound concentration 1 uM, replicate 2
# key: entry, value: Population Membrane Permeable-Phenotype (%)
Please respond with the number in % and leave the unit unwritten.

// below: answered molecules
- Molecule: "CCc1nn2c(C)cc(C)nc2c1Cc1ccc(-c2nnc(C3CCNCC3)o2)cc1"
  Target Or System: "U2OS"
  Display Unit: "%"
  Result Value: 14
- Molecule: "CC(C)(C)c1ccc(CSc2cnn(C(C)(C)C)c(=O)c2Cl)cc1"
  Target Or System: "U2OS"
  Display Unit: "%"
  Result Value: 4

Param item: O=C(O)CCC/C=C\CC1C(O)CC(O)C1/C=C/C(O)COc1cccc(Cl)c1 (stereo not given) ; param system: U2OS; output Population Membrane Permeable-Phenotype (%): 6

Param item: CCn1c(-c2nc3cc(C(=O)N4CCCC(N)C4)ccc3n2C)cc2ccccc21.Cl (stereo not given) ; param system: U2OS; output Population Membrane Permeable-Phenotype (%): 15

Param item: COc1cc(OC2CCN(C(C)=O)CC2)ccc1C(=O)N1CCC(N2C(=O)OCc3ccccc32)CC1 ; param system: U2OS; output Population Membrane Permeable-Phenotype (%): 11

* * *

test system: HEK-293T; experiment: Multiplex assay against HEK293T; assay type: toxicity, cell-based; settings: human, 24 h, 10 µM, compound concentration 10 uM, replicate 2
Non-standard residues stand in square brackets, D forms with d. Residues, ends and D or L forms follow the SMILES beside them.
# key: entry, value: Population Mitochondria Different-Phenotype (%)
Please respond with the number in % and leave the unit unwritten.

- Compound: "CCC(=O)OCC(=O)[C@@]1(OC(=O)CC)[C@@H](C)C[C@H]2[C@@H]3CCC4=CC(=O)C=C[C@]4(C)[C@@]3(Cl)[C@@H](O)C[C@@]21C [BECLOMETHASONE DIPROPIONATE]"
  Display Unit: "%"
  Result Value: 97
- Compound: "CC(C)C[C@H](CO)Nc1nc(S[C@@H](C)c2ccccc2)nc2nc(N)sc12 [AZD-8797]"
  Display Unit: "%"
  Result Value: 71
- Compound: "COc1c(Nc2ccc(S(C)(=O)=O)nc2C)ncnc1OC1CCN(C(=O)OC(C)C)CC1 [ADP-597]"
  Display Unit: "%"
  Result Value: 54
- Compound: "CN1CCN2c3ccccc3Cc3ccccc3C2C1.Cl (configuration not stated) [MIANSERIN HYDROCHLORIDE]"
  Display Unit: "%"
  Result Value: 36
- Compound: "CCCCC[C@H](O)/C=C/[C@H]1[C@H](O)CC(=O)[C@@H]1CCCCCCC(=O)O [ALPROSTADIL]"
  Display Unit: "%"
  Result Value: 50

The compound listed as CC(C)C[C@@H]1NC(=O)[C@@H](C(C)C)NC(=O)[C@@H]2CCCN2C(=O)[C@@H](CC(=O)O)NC(=O)[C@@H](Cc2c[nH]c3ccccc23)NC1=O [BQ-123] (cyclo(L[dW][dD]P[dV])) has a reported Population Mitochondria Different-Phenotype (%) of 50

The compound listed as O=C(NCCNCC(O)COc1ccc(O)cc1)N1CCOCC1.O=C(NCCNCC(O)COc1ccc(O)cc1)N1CCOCC1.O=C(O)/C=C/C(=O)O (configuration not stated) [XAMOTEROL FUMARATE] has a reported Population Mitochondria Different-Phenotype (%) of 42

* * *

# key: entry, value: Population Fragmented Nuclei (%)
test system: HEK-293T; test: Multiplex assay against HEK293T; assay type: toxicity, cell-based; conditions: human, 12 h, 10 µM, compound concentration 10 uM, replicate 2
Please respond with the number in % and leave the unit unwritten.

// below: answered compounds
- Compound: "O=C(O)CCC/C=C\\CC1C(O)CC(O)C1/C=C/C(O)COc1cccc(Cl)c1 (stereo not given)"
  Result Value: 8
- Compound: "CN1CCN(c2ccc(Nc3c4ccccc4nc4ccccc34)cc2)CC1.Cl.Cl.O"
  Result Value: 40
- Compound: "S=C(NCCCc1c[nH]cn1)NCCCN(Cc1ccc(Cl)c(Cl)c1)c1ccc(Br)cn1"
  Result Value: 8
- Compound: "COc1cc(Nc2ncc3c(n2)-c2ccc(Cl)cc2C(c2c(F)cccc2OC)=NC3)ccc1C(=O)O"
  Result Value: 9

Pending compound:
The compound listed as CC(C)C[C@H](CO)Nc1nc(S[C@@H](C)c2ccccc2)nc2nc(N)sc12 has a reported Population Fragmented Nuclei (%) of 6

* * *

system: U2OS; experiment: Multiplex assay against U2OS; type: toxicity, cell-based; settings: human, 24 h, 10 µM, compound concentration 10 uM, replicate 1
Result Type: Population Mitotic Cells (%)
Please respond with the number in % and leave the unit unwritten.

- Compound: "C=CCN1C[C@H](C(=O)N(CCCN(C)C)C(=O)NCC)C[C@@H]2c3cccc4[nH]cc(c34)C[C@H]21 [CABERGOLINE]"
  Display Unit: "%"
  Population Mitotic Cells (%): 34
- Compound: "O=c1ccc2ccc(OCCCCN3CCN(c4cccc5sccc45)CC3)cc2[nH]1 [BREXPIPRAZOLE]"
  Display Unit: "%"
  Population Mitotic Cells (%): 6
- Compound: "Nc1nc(CC(=O)Nc2ccc(CCNC[C@H](O)c3ccccc3)cc2)cs1 [MIRABEGRON]"
  Display Unit: "%"
  Population Mitotic Cells (%): 13
- Compound: "COc1cc(OC2CCN(C(C)=O)CC2)ccc1C(=O)N1CCC(N2C(=O)OCc3ccccc32)CC1"
  Display Unit: "%"
  Population Mitotic Cells (%): 18
- Compound: "COc1cc(Nc2ncc3c(n2)-c2ccc(Cl)cc2C(c2c(F)cccc2OC)=NC3)ccc1C(=O)O [ALISERTIB]"
  Display Unit: "%"
  Population Mitotic Cells (%): 15
- Compound: "Cc1cc(=O)n(C)c2cc(N3C(=O)CC[C@H](NS(=O)(=O)CC(C)C)[C@H]3c3ccc(Cl)cc3)ccc12"
  Display Unit: "%"
  Population Mitotic Cells (%): 28
- Compound: "CSc1nc(NC2CCCC2)c([N+](=O)[O-])c(NC2CCCC2)n1 [GS-39783]"
  Display Unit: "%"
  Population Mitotic Cells (%): 14
- Compound: "COCCn1c(C)c(C)s/c1=N\\C(=O)C1C(C)(C)C1(C)C"
  Display Unit: "%"
  Population Mitotic Cells (%): 19

The compound listed as CCc1nn2c(C)cc(C)nc2c1Cc1ccc(-c2nnc(C3CCNCC3)o2)cc1 has a reported Population Mitotic Cells (%) of 22

The compound listed as CC(C)(O)C(=O)N1CCN(c2ccc(C(F)(F)F)c(C3=C(c4c[nH]c5ccccc45)C(=O)NC3=O)c2)CC1 has a reported Population Mitotic Cells (%) of 12

The compound listed as CN1CCC(C(=O)c2cccc(NC(=O)c3c(F)cc(F)cc3F)n2)CC1 has a reported Population Mitotic Cells (%) of 17

The compound listed as Cc1cc(O)c(-c2ccc([C@@H](C)CN(C)C)cc2)c2c1[nH]c(=O)c1sccc12 has a reported Population Mitotic Cells (%) of 18

The compound listed as CCn1c(-c2nc3cc(C(=O)N4CCCC(N)C4)ccc3n2C)cc2ccccc21.Cl (stereo not drawn) has a reported Population Mitotic Cells (%) of 38

The compound listed as CN(C)C(=O)Cn1cc(-c2ccc(-c3nnc4ccccn34)cc2)cn1 has a reported Population Mitotic Cells (%) of 13

The compound listed as CCCCCCNC(=O)Nc1ccc(S(=O)(=O)Nc2ccc(CCNC[C@H](O)COc3ccc(O)cc3)cc2)cc1 [L-755507] has a reported Population Mitotic Cells (%) of 14

The compound listed as S=C(NCCCc1c[nH]cn1)NCCCN(Cc1ccc(Cl)c(Cl)c1)c1ccc(Br)cn1 has a reported Population Mitotic Cells (%) of 37

The compound listed as COc1c(Nc2ccc(S(C)(=O)=O)nc2C)ncnc1OC1CCN(C(=O)OC(C)C)CC1 [ADP-597] has a reported Population Mitotic Cells (%) of 12

The compound listed as C[C@H](NC(=O)CNC(=O)c1cccc(Cl)c1)c1ccccc1 has a reported Population Mitotic Cells (%) of 9
